Exercise: for every item that follows, state its recorded % of Viability.
Tested on: Calu-3 cells
protocol.details: Cytotoxicity CC50 in Calu-3 lung epithelial cells
Type: cell-based, human
details: Log [inhibitor] -5.00; single replicates
Numbers only here, please. The scale is %.

stdin: Identify measured % of Viability corresponding to CS(=O)(=O)N[C@@H](CCC(N)=O)C(=O)N[C@@H](Cc1ccccc1)C(=O)N[C@@H](CCCNC(=N)N)C(=O)c1nc2ccccc2s1
stdout: 99

stdin: Identify measured % of Viability corresponding to N=C(N)NCCCCC(=O)NC(CCC(N)=O)C(=O)NC(Cc1ccccc1)C(=O)NC(CCCNC(=N)N)C(=O)c1nc2ccccc2s1 (stereo not shown)
stdout: 92

stdin: Identify measured % of Viability corresponding to N=C(N)NCCCCC(=O)N[C@@H](CCC(=O)O)C(=O)N[C@@H](Cc1ccccc1)C(=O)N[C@@H](CCCNC(=N)N)C(=O)c1nc2ccccc2s1
stdout: 85

stdin: Identify measured % of Viability corresponding to CC(=O)N[C@@H](CCC(N)=O)C(=O)N[C@@H](Cc1ccccc1)C(=O)N[C@@H](CCCNC(=N)N)C(=O)c1nc2ccccc2s1
stdout: 88

* * *

Exercise: for every item that follows, state its recorded viability at 24 h, 0.003 µM.
protocol.details: Cytotoxicity CC50 in Calu-3 lung epithelial cells
Type: cell-based, human
details: human, Calu-3 cells, Log [inhibitor] -8.52; single replicates; read-out: % of Viability
Numbers only here, please. The scale is %.

stdin: Identify measured viability at 24 h, 0.003 µM corresponding to N=C(N)NCCCCC(=O)N[C@@H](CCC(=O)O)C(=O)N[C@@H](Cc1ccccc1)C(=O)N[C@@H](CCCNC(=N)N)C(=O)c1nc2ccccc2s1
stdout: 109

stdin: Identify measured viability at 24 h, 0.003 µM corresponding to CC(=O)N[C@@H](CCC(N)=O)C(=O)N[C@@H](Cc1ccccc1)C(=O)N[C@@H](CCCNC(=N)N)C(=O)c1nc2ccccc2s1
stdout: 102

stdin: Identify measured viability at 24 h, 0.003 µM corresponding to N=C(N)NCCCCC(=O)NC(CCC(N)=O)C(=O)NC(Cc1ccccc1)C(=O)NC(CCCNC(=N)N)C(=O)c1nc2ccccc2s1 (stereo not shown)
stdout: 101

stdin: Identify measured viability at 24 h, 0.003 µM corresponding to CS(=O)(=O)N[C@@H](CCC(N)=O)C(=O)N[C@@H](Cc1ccccc1)C(=O)N[C@@H](CCCNC(=N)N)C(=O)c1nc2ccccc2s1
stdout: 119

* * *

Exercise: for every item that follows, state its recorded Ki.
tested.target: Recombinant human matriptase (Homo sapiens, UniProt Q9Y5Y6)
Construct: made in house
Sequence (Q9Y5Y6 whole entry): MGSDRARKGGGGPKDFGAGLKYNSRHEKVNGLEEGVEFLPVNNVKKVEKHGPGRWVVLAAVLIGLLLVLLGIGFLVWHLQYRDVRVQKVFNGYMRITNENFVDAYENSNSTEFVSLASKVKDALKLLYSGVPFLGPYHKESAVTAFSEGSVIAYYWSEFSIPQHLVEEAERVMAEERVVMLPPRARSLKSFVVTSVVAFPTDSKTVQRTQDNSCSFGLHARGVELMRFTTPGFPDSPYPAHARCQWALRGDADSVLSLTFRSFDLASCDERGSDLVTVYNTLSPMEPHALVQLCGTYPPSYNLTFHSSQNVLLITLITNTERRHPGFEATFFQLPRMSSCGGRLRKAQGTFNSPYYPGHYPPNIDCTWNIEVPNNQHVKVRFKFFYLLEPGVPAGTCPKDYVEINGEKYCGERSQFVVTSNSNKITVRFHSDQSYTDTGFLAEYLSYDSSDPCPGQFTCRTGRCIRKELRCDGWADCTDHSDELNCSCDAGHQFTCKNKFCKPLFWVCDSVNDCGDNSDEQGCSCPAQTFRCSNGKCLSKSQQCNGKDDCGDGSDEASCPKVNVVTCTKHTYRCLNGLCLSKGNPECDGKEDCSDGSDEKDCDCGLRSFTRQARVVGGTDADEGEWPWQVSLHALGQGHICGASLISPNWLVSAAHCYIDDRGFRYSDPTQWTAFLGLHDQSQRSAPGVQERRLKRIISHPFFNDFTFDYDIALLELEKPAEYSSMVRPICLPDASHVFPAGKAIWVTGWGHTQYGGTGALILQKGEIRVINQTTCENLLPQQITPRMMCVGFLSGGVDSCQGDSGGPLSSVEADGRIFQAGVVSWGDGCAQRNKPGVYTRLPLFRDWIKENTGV
protocol.details: Protease selectivity, Ki on recombinant protease
Assay type: biochemical
details: mean ± s.d., max concentration 10 µM; read-out: Ki Matriptase
Structures can show the parent of a compound that is named as a salt.
Numbers only here, please. The scale is nM.

stdin: Identify measured Ki corresponding to N=C(N)NCCCCC(=O)N[C@@H](CCC(=O)O)C(=O)N[C@@H](Cc1ccccc1)C(=O)N[C@@H](CCCNC(=N)N)C(=O)c1nc2ccccc2s1 [Compound N-0438, (H)REFR-kbt]
stdout: 1.11

stdin: Identify measured Ki corresponding to N=C(N)NCCCCC(=O)NC(CCC(N)=O)C(=O)NC(Cc1ccccc1)C(=O)NC(CCCNC(=N)N)C(=O)c1nc2ccccc2s1 (stereo not drawn) [Compound N-0130, (H)RQFR-kbt]
stdout: 0.13

stdin: Identify measured Ki corresponding to CN(C)C(=O)COC(=O)Cc1ccc(OC(=O)c2ccc(NC(=N)N)cc2)cc1 [Camostat mesylate, reference compound]
stdout: 5.6

* * *

Exercise: for every item that follows, state its recorded viability at 24 h, 30 µM.
protocol.details: Cytotoxicity CC50 in Calu-3 lung epithelial cells
Format: cell-based, human
details: human, Calu-3 cells, Log [inhibitor] -4.52; read-out: % of Viability, Average (n=2)
Numbers only here, please. The scale is %.

stdin: Identify measured viability at 24 h, 30 µM corresponding to N=C(N)NCCCCC(=O)N[C@@H](CCC(=O)O)C(=O)N[C@@H](Cc1ccccc1)C(=O)N[C@@H](CCCNC(=N)N)C(=O)c1nc2ccccc2s1 [Compound N-0438, (H)REFR-kbt]
stdout: 89

stdin: Identify measured viability at 24 h, 30 µM corresponding to CS(=O)(=O)N[C@@H](CCC(N)=O)C(=O)N[C@@H](Cc1ccccc1)C(=O)N[C@@H](CCCNC(=N)N)C(=O)c1nc2ccccc2s1 [Compound N-385]
stdout: 87

stdin: Identify measured viability at 24 h, 30 µM corresponding to CC(=O)N[C@@H](CCC(N)=O)C(=O)N[C@@H](Cc1ccccc1)C(=O)N[C@@H](CCCNC(=N)N)C(=O)c1nc2ccccc2s1 [Compound N-386]
stdout: 87.5

stdin: Identify measured viability at 24 h, 30 µM corresponding to N=C(N)NCCCCC(=O)NC(CCC(N)=O)C(=O)NC(Cc1ccccc1)C(=O)NC(CCCNC(=N)N)C(=O)c1nc2ccccc2s1 (stereo not shown) [Compound N-0130, (H)RQFR-kbt]
stdout: 96.5

* * *

protocol.details: Cytotoxicity CC50 in Calu-3 lung epithelial cells
Format: cell-based, human
details: human, Calu-3 cells, Log [inhibitor] -3.52; single replicates; read-out: % of Viability
experimental.endpoint: viability at 24 h, 300 µM (%)
Numbers only here, please. The scale is %.

stdin: Identify measured viability at 24 h, 300 µM corresponding to CC(=O)N[C@@H](CCC(N)=O)C(=O)N[C@@H](Cc1ccccc1)C(=O)N[C@@H](CCCNC(=N)N)C(=O)c1nc2ccccc2s1
stdout: 79

stdin: Identify measured viability at 24 h, 300 µM corresponding to CS(=O)(=O)N[C@@H](CCC(N)=O)C(=O)N[C@@H](Cc1ccccc1)C(=O)N[C@@H](CCCNC(=N)N)C(=O)c1nc2ccccc2s1
stdout: 90

stdin: Identify measured viability at 24 h, 300 µM corresponding to N=C(N)NCCCCC(=O)N[C@@H](CCC(=O)O)C(=O)N[C@@H](Cc1ccccc1)C(=O)N[C@@H](CCCNC(=N)N)C(=O)c1nc2ccccc2s1
stdout: 86

stdin: Identify measured viability at 24 h, 300 µM corresponding to N=C(N)NCCCCC(=O)NC(CCC(N)=O)C(=O)NC(Cc1ccccc1)C(=O)NC(CCCNC(=N)N)C(=O)c1nc2ccccc2s1 (stereo not shown)
stdout: 90

* * *

tested.target: Recombinant human hepsin (Homo sapiens)
Construct: made in house
Sequence (P05981 whole entry): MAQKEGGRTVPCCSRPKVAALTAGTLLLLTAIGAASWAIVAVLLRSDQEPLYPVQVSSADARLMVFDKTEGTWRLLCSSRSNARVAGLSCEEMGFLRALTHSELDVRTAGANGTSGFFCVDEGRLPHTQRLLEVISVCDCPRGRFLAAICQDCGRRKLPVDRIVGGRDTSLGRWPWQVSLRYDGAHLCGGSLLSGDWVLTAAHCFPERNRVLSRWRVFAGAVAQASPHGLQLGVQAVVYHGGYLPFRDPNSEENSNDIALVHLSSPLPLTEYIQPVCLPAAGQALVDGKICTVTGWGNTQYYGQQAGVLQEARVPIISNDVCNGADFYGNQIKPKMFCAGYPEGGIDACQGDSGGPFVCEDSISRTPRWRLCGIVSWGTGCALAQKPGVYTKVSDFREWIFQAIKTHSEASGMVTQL
protocol.details: Protease selectivity, Ki on recombinant protease
Assay type: biochemical
details: mean ± s.d., max concentration 10 µM; read-out: Ki Hepsin
Exercise: for every item that follows, state its recorded Ki.

stdin: Identify measured Ki corresponding to N=C(N)NCCCCC(=O)NC(CCC(N)=O)C(=O)NC(Cc1ccccc1)C(=O)NC(CCCNC(=N)N)C(=O)c1nc2ccccc2s1 (centres unmarked)
stdout: 0.38 nM

stdin: Identify measured Ki corresponding to N=C(N)NCCCCC(=O)N[C@@H](CCC(=O)O)C(=O)N[C@@H](Cc1ccccc1)C(=O)N[C@@H](CCCNC(=N)N)C(=O)c1nc2ccccc2s1
stdout: 0.52 nM

* * *

protocol.details: Cytotoxicity CC50 in Calu-3 lung epithelial cells
Format: cell-based, human
details: human, Calu-3 cells, Log [inhibitor] -5.00; read-out: % of Viability, Average (n=2)
experimental.endpoint: viability at 24 h, 10 µM (%)
Numbers only here, please. The scale is %.

stdin: Identify measured viability at 24 h, 10 µM corresponding to CS(=O)(=O)N[C@@H](CCC(N)=O)C(=O)N[C@@H](Cc1ccccc1)C(=O)N[C@@H](CCCNC(=N)N)C(=O)c1nc2ccccc2s1 [Compound N-385]
stdout: 101

stdin: Identify measured viability at 24 h, 10 µM corresponding to N=C(N)NCCCCC(=O)NC(CCC(N)=O)C(=O)NC(Cc1ccccc1)C(=O)NC(CCCNC(=N)N)C(=O)c1nc2ccccc2s1 (stereo not shown) [Compound N-0130, (H)RQFR-kbt]
stdout: 95

stdin: Identify measured viability at 24 h, 10 µM corresponding to CC(=O)N[C@@H](CCC(N)=O)C(=O)N[C@@H](Cc1ccccc1)C(=O)N[C@@H](CCCNC(=N)N)C(=O)c1nc2ccccc2s1 [Compound N-386]
stdout: 87

stdin: Identify measured viability at 24 h, 10 µM corresponding to N=C(N)NCCCCC(=O)N[C@@H](CCC(=O)O)C(=O)N[C@@H](Cc1ccccc1)C(=O)N[C@@H](CCCNC(=N)N)C(=O)c1nc2ccccc2s1 [Compound N-0438, (H)REFR-kbt]
stdout: 89

* * *

tested.target: UniProt Q9JIQ8
Sequence (Q9JIQ8 whole entry): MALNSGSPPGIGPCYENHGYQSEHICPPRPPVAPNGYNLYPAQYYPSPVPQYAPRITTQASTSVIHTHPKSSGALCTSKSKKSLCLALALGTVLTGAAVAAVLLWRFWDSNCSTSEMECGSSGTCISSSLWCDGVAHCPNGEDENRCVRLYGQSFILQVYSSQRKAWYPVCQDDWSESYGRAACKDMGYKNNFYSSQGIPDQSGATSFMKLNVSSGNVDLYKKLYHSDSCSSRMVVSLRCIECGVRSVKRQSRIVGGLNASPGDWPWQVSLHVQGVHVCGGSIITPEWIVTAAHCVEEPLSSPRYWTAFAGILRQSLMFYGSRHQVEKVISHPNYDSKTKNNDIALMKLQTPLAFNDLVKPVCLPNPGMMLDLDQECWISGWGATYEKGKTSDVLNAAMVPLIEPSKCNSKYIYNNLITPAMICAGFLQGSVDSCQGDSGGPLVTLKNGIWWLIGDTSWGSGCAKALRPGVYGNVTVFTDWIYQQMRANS
protocol.details: cell-based
details: mTMPRSS2; mean of independent experiments; Figure S1C; read-out: IC50 Mean
experimental.endpoint: pIC50
Field pIC50 (float): negative decimal logarithm of the concentration in molar.

stdin: Fetch value of pIC50 on UniProt Q9JIQ8 for CS(=O)(=O)NC(CCC(N)=O)C(=O)NC(Cc1ccccc1)C(=O)NC(CCCNC(=N)N)C(=O)c1nc2ccccc2s1 (stereo not shown) .
stdout: 7.91
